TARGET_ENTITY: T1, human IL-18BP (human, UniProt O95998 31-194)
T1 construct: UniProt printed as 095998; also called hIL-18BP
T1 sequence: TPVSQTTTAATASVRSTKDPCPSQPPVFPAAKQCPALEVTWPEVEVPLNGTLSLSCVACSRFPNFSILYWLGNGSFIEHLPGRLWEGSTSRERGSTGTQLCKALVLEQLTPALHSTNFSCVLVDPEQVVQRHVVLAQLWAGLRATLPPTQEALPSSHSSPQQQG
ASSAY_EXPLANATION: BLI, apparent KD
Task for the reader: assign each of the following binders its reported Kd.
Kindly answer with a numeric value in nM, unit omitted.

Hello, please tell me recorded Kd for this one: SA301a LC-P95A (antibody, V domains shown) VH: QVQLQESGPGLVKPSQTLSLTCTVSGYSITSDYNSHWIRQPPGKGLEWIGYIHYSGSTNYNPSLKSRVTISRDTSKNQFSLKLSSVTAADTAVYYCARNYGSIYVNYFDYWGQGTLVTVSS VL: EIVLTQSPATLSLSPGERATLSCSASSSVSYMYWYQQKPGQAPRPLIYRTSNLASGIPARFSGSGSGTDFTLTISSLEPEDFAVYYCQQYHSYATFGGGTKVEIK
0.26

Hello, please tell me recorded Kd for this one: SA301a LC-S93M (antibody, V domains shown) VH: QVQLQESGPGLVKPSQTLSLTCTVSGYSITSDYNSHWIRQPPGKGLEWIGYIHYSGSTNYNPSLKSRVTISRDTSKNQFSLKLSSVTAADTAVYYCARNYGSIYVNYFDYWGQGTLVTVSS VL: EIVLTQSPATLSLSPGERATLSCSASSSVSYMYWYQQKPGQAPRPLIYRTSNLASGIPARFSGSGSGTDFTLTISSLEPEDFAVYYCQQYHMYPTFGGGTKVEIK
0.14
